pKi: −log10 of the molar value.
Literature survey of pKi (system: Urokinase-type plasminogen activator (Homo sapiens, UniProt P00749)).
MEASURED_QUANTITY: pKi

STRUCTURE_SMILES	TEST_SYSTEM	REPORTED_RELATION	OBS_VALUE
COc1ccc(-c2nc(C(=O)NC(=N)N)c(N)nc2N)c(OC)n1	Urokinase-type plasminogen activator (Homo sapiens, UniProt P00749)	=	5.92
N=C(N)c1ccc2cc(Nc3ncccn3)ccc2c1	Urokinase-type plasminogen activator (Homo sapiens, UniProt P00749)	=	6.00
Cc1cc(-c2ccccc2)c(O)c(-c2cc3cc(C(=N)N)ccc3[nH]2)c1	Urokinase-type plasminogen activator (Homo sapiens, UniProt P00749)	=	6.96
Cc1cc2cc(C)c1CCOC(=O)Nc1ccc(S(=O)(=O)C3CC3)c(c1)CN(C)C(=O)[C@@H]2Nc1ccc2cc[nH]c(=O)c2c1	Urokinase-type plasminogen activator (Homo sapiens, UniProt P00749)	<	5.00
Cc1cc2cc(N=C(NC#N)N[C@H]3CCCCN(CC(=O)N4CCCC4)C3=O)ccc2o1	Urokinase-type plasminogen activator (Homo sapiens, UniProt P00749)	<	5.11
